target: p38 MAPKα isoform (MAPK14) (Homo sapiens, UniProt Q16539); assay: Enzyme inhibition assay (FRET, Z-LYTE), p38 MAPKα via MAPKAP-K2 activation; settings: read-out: Enzyme Inhibition IC50 p38α
Sequence (Q16539 whole entry, canonical isoform): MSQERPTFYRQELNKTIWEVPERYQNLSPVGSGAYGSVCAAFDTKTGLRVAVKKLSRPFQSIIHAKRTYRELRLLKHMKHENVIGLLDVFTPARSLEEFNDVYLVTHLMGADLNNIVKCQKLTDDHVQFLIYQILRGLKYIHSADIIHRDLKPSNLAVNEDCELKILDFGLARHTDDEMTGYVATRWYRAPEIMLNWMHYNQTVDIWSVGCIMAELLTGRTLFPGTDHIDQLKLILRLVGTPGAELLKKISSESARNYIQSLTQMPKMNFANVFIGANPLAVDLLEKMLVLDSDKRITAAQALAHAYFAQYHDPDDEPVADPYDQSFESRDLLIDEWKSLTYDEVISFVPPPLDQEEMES
pIC50: −log10 of the molar value.
measure-name: pIC50

[I] COc1ccc(-n2nc(C(C)(C)C)cc2NC(=O)Nc2ccc(Oc3ccnc(NC(=O)N4CC[C@H](N(C)C)C4)c3)c(Cl)c2Cl)cc1
[II] COCC(=O)Nc1cc(Oc2cc(Cl)c(NC(=O)Nc3cc(C(C)(C)C)nn3-c3ccc(C)cc3)cc2F)ccn1
**Query** Hi! Which is lower in terms of pIC50, the first one I or the second one II ? The response must carry the label of the picked entry.
**Result** II

[A] COc1ccc(-n2nc(C(C)(C)C)cc2NC(=O)Nc2ccc(Oc3ccnc(NC(=O)NCCCn4ccnc4)c3)c(Cl)c2Cl)cc1
[B] CNC(=O)Nc1cc(COc2ccc(NC(=O)Nc3cc(C(C)(C)C)nn3-c3ccc(OC)cc3)c(Cl)c2Cl)ccn1
**Query** Thinking about recorded pIC50 values, which is higher, A or B ? The response must carry the label of the picked entry.
**Result** A

[A] COCC(=O)Nc1cc(Oc2ccc(NC(=O)Nc3cc(C(C)(C)C)nn3-c3ccc(CO)cc3)c(Cl)c2Cl)ccn1
[B] COc1ccc(-n2nc(C(C)(C)C)cc2NC(=O)Nc2ccc(Oc3ccnc(NC(=O)NC4CC4)c3)c(Cl)c2Cl)cc1
**Query** Thinking about recorded pIC50 values, which is higher, A or B ? The response must carry the label of the picked entry.
**Result** A

----------
test system: IL-8 release in d-U937 cells; assay: LPS-induced IL-8 release in d-U937 cells; format: cell-based, human; settings: Homo sapiens, dU937
measure-name: IC50 (nM)

Use the examples below as a reference point.
| compound | observed |
| --- | --- |
| Cc1ccc(-n2nc(C(C)(C)C)cc2NC(=O)Nc2ccc(Oc3ccnc(NC(=O)N4CCCC4)c3)c(Cl)c2Cl)cc1 | 0.2 |
| COc1ccc(-n2nc(C(C)(C)C)cc2NC(=O)Nc2ccc(Oc3ccnc(NC(=O)CN(C)C)c3)c(Cl)c2Cl)cc1 | 1.3 |
| CNC(=O)Nc1cc(Oc2ccc(NC(=O)Nc3cc(C(C)(C)C)nn3-c3ccc(CO)cc3)c3cccnc23)ccn1 | 25.8 |
| COc1ccc(-n2nc(C(C)(C)C)cc2NC(=O)Nc2ccc(Oc3ccnc(NC(=O)N4CCCC4)c3)c(Cl)c2Cl)cc1 | 0.8 |
| COCC(=O)Nc1cc(COc2ccc(NC(=O)Nc3cc(C(C)(C)C)nn3-c3ccc(OC)cc3)c(Cl)c2Cl)ccn1 | 162 |
| CC(C)(C)c1cc(NC(=O)Nc2ccc(Oc3ccnc(NC(=O)N4CCCC4)c3)c(Cl)c2Cl)n(-c2ccc(O)cc2)n1 | 1.7 |
| COCC(=O)Nc1cc(COc2ccc(NC(=O)Nc3cc(C(C)(C)C)nn3-c3ccc(C)cc3)c(Cl)c2Cl)ccn1 | 70.2 |
| COCCNC(=O)Nc1cc(Oc2ccc(NC(=O)Nc3cc(C(C)(C)C)nn3-c3ccc(OC)cc3)c(Cl)c2Cl)ccn1 | 5.8 |

[a] COc1ccc(-n2nc(C(C)(C)C)cc2NC(=O)Nc2ccc(Oc3ccnc(NC(=O)NC4CC4)c3)c(Cl)c2Cl)cc1
[b] CNC(=O)Nc1cc(Oc2ccc(NC(=O)Nc3cc(C(C)(C)C)nn3-c3ccc(CO)cc3)c(Cl)c2Cl)ccn1
**Query** Thinking about recorded IC50 values, which is higher, a or b ? The response must carry the label of the picked entry.
**Result** a
(a: 3.8 nM, b: 1.9 nM)

----------
tested on: TNFα release in d-U937 cells; assay: LPS-induced TNFα release in d-U937 cells; format: cell-based, human; details: Homo sapiens, dU937, relative to 10 μg/mL BIRB796, read-out: LPS/TNFα REC50 d-U937
pEC50: −log10 of the molar value.
measure-name: pEC50

| chem-smiles | measurement-target | pEC50 |
| --- | --- | --- |
| COCC(=O)Nc1cc(Oc2ccc(NC(=O)Nc3cc(C(C)(C)C)nn3-c3ccc(C)cc3)c(F)c2)ccn1 | TNFα release in d-U937 cells | 8.64 |
| COc1ccc(-n2nc(C(C)(C)C)cc2NC(=O)Nc2ccc(Oc3ccnc(NC(=O)N4CCCC4)c3)c(C#N)c2Cl)cc1 | TNFα release in d-U937 cells | 9.40 |
| COCC(=O)Nc1cc(Oc2ccc(NC(=O)Nc3cc(C(C)(C)C)nn3-c3ccc(CO)cc3)c(Cl)c2Cl)ncn1 | TNFα release in d-U937 cells | 8.89 |
| COCC(=O)Nc1cc(Oc2ccc(NC(=O)Nc3cc(C(C)(C)C)nn3-c3ccc(C)cc3)cc2C#N)ccn1 | TNFα release in d-U937 cells | 8.57 |
| CN(C)[C@H]1CCN(C(=O)Nc2cc(Oc3ccc(NC(=O)Nc4cc(C(C)(C)C)nn4-c4ccc(O)cc4)c(Cl)c3Cl)ccn2)C1 | TNFα release in d-U937 cells | 9.10 |
| Cc1ccc(-n2nc(C(C)(C)C)cc2NC(=O)Nc2ccc(Oc3ccnc(NC(=O)N4CCCC4)c3)c(Cl)c2Cl)cc1 | TNFα release in d-U937 cells | 8.72 |

[a] CNC(=O)Nc1cc(COc2ccc(NC(=O)Nc3cc(C(C)(C)C)nn3-c3ccc(OC)cc3)c(Cl)c2Cl)ccn1
[b] CN(C)[C@H]1CCN(C(=O)Nc2cc(Oc3ccc(NC(=O)Nc4cc(C(C)(C)C)nn4-c4ccc(CO)cc4)c(Cl)c3Cl)ccn2)C1
[c] COCC(=O)Nc1cc(Oc2ccc(NC(=O)Nc3cc(C(C)(C)C)nn3-c3ccc(C)cc3)cc2S(C)(=O)=O)ccn1
[d] COc1ccc(-n2nc(C(C)(C)C)cc2NC(=O)Nc2ccc(Oc3ccnc(NC(=O)CN4CCOCC4)c3)c(Cl)c2Cl)cc1
[e] CNC(=O)Nc1cc(Oc2ccc(NC(=O)Nc3cc(C(C)(C)C)nn3-c3ccc(CO)c(Cl)c3)c(Cl)c2Cl)ccn1
**Query** Hey, quick one: sort these by pEC50, largest value first please. In your reply, arrange the labels in the requested order.
**Result** e, d, b, a, c

----------
test system: Differentiated U937 cells; experiment: Cell viability MTT assay; format: cell-based, human; settings: 4 hr in 5% FCS; negative = apparent increase in viability
Entries and their MTT Assay (Viability) 4 h d-U937, percentage loss of cell viability
Give the quantity in %, number only.

Use the examples below as a reference point.
| chem-smiles | observed |
| --- | --- |
| COc1ccc(-n2nc(C(C)(C)C)cc2NC(=O)Nc2ccc(Oc3ccnc(NC(=O)NCCN(C)C)c3)c(Cl)c2Cl)cc1 | −6.4 |
| CN(C)CCCC(=O)Nc1cc(Oc2ccc(NC(=O)Nc3cc(C(C)(C)C)nn3-c3ccc(CO)cc3)c(Cl)c2Cl)ncn1 | −20.9 |
| CN(C)CCNC(=O)Nc1cc(Oc2ccc(NC(=O)Nc3cc(C(C)(C)C)nn3-c3ccc(CO)cc3)c(Cl)c2Cl)ncn1 | 2.8 |
| COc1ccc(-n2nc(C(C)(C)C)cc2NC(=O)Nc2ccc(Oc3cc(NC(=O)NCCN(C)C)ncn3)c(Cl)c2Cl)cc1 | −43.0 |
| COCC(=O)Nc1cc(COc2ccc(NC(=O)Nc3cc(C(C)(C)C)nn3-c3ccc(C)cc3)c(Cl)c2Cl)ccn1 | −7.9 |

# MTT Assay (Viability) 4 h d-U937, percentage loss of cell viability measured on Differentiated U937 cells for item CNC(=O)Nc1cc(Oc2ccc(NC(=O)Nc3cc(C(C)(C)C)nn3-c3ccc(CO)cc3)c(Cl)c2Cl)ncn1 = 3.7

# MTT Assay (Viability) 4 h d-U937, percentage loss of cell viability measured on Differentiated U937 cells for item CN(C)[C@H]1CCN(C(=O)Nc2cc(Oc3ccc(NC(=O)Nc4cc(C(C)(C)C)nn4-c4ccc(CO)cc4)c(Cl)c3Cl)ccn2)C1 = −9.9

# MTT Assay (Viability) 4 h d-U937, percentage loss of cell viability measured on Differentiated U937 cells for item COCC(=O)Nc1cc(Oc2ccc(NC(=O)Nc3cc(C(C)(C)C)nn3-c3ccc(C)cc3)c(Cl)c2C#N)ccn1 = −24.1

# MTT Assay (Viability) 4 h d-U937, percentage loss of cell viability measured on Differentiated U937 cells for item Cc1ccc(-n2nc(C(C)(C)C)cc2NC(=O)Nc2ccc(Oc3ccnc(NC(=O)N4CCCC4)c3)c(Cl)c2Cl)cc1 = −13.7

# MTT Assay (Viability) 4 h d-U937, percentage loss of cell viability measured on Differentiated U937 cells for item Cc1ccc(-n2nc(C(C)(C)C)cc2NC(=O)Nc2ccc(Oc3cc(NC(=O)NCCN(C)C)ncn3)c(Cl)c2Cl)cc1 = −17.7

# MTT Assay (Viability) 4 h d-U937, percentage loss of cell viability measured on Differentiated U937 cells for item CNC(=O)Nc1cc(Oc2ccc(NC(=O)Nc3cc(C(C)(C)C)nn3-c3ccc(C(=O)OC)cc3)c(Cl)c2Cl)ccn1 = −24.8

# MTT Assay (Viability) 4 h d-U937, percentage loss of cell viability measured on Differentiated U937 cells for item COCC(=O)Nc1cc(Oc2ccc(NC(=O)Nc3cc(C(C)(C)C)nn3-c3ccc(C)cc3)c(Cl)c2Cl)ncn1 = −49.9

# MTT Assay (Viability) 4 h d-U937, percentage loss of cell viability measured on Differentiated U937 cells for item CNC(=O)Nc1cc(Oc2ccc(NC(=O)Nc3cc(C(C)(C)C)nn3-c3ccc(OC)cc3)c3ncccc23)ccn1 = −23.6
